# System: total white blood cell (WBC)
# Assay Comment: Total white blood cells by complete blood count on day 8, dosing day 1, 3, 5
# Assay type: in vivo, Swiss-Webster mice
# Test Conditions: mice, oral gavage, 20 mg/kg on day 1, day 3 and day 5; measured on day 8
Items are presented alongside their recorded Total WBC.

In the examples that follow, each entry is paired with its recorded Total WBC.
N#Cc1nc(C(=O)NCC(=O)O)c(O)c2cc(C(F)(F)F)n(Cc3ccccc3F)c12 : 9.6 10^3 cells/μl
Cc1cccc(Oc2cccc3c(C#N)nc(C(=O)NCC(=O)O)c(O)c23)c1 : 7.5 10^3 cells/μl
N#Cc1nc(C(=O)NCC(=O)O)c(O)c2cc(Oc3ccccc3)ccc12 : 7.6 10^3 cells/μl

Could you tell me which Total WBC is on file for `CCCCCCn1cc(Cl)c2c(O)c(C(=O)NCC(=O)O)nc(C#N)c21` ?
7.2 10^3 cells/μl

Note, next up: `O=C(O)CNC(=O)c1c(O)c2ccccc2sc1=O`
8.4 10^3 cells/μl

====

# Test system: total white blood cell (WBC)
# Assay Comment: Total white blood cells by complete blood count on day 8, dosing day 1, 3, 5
# Assay type: in vivo, Swiss-Webster mice
# Test Conditions: mice, oral gavage, 200 mg/kg on day 1, day 3 and day 5; measured on day 8
Items are presented alongside their recorded Total WBC.

In the examples that follow, each entry is paired with its recorded Total WBC.
N#Cc1nc(C(=O)NCC(=O)O)c(O)c2c(Cl)c(Cl)n(Cc3ccccc3)c12 [Compound Q] : 38.7 10^3 cells/μl
N#Cc1nc(C(=O)NCC(=O)O)c(O)c2cccc(Oc3ccc(F)cc3)c12 [Compound AF] : 8.2 10^3 cells/μl

Could you tell me which Total WBC is on file for O=C(O)CNC(=O)c1ncc2cc(Oc3ccc(F)c(Cl)c3)ccc2c1O [Compound W] ?
8.4 10^3 cells/μl

====

# Test system: monocytes
# Assay Comment: Monocytes by complete blood count on day 8, dosing day 1, 3, 5
# Type: in vivo, Swiss-Webster mice
# Test Conditions: mice, oral gavage, 100 mg/kg on day 1, day 3 and day 5; measured on day 8
Items are presented alongside their recorded Monocytes.

In the examples that follow, each entry is paired with its recorded Monocytes.
O=C(O)CNC(=O)c1ncc2cc(Oc3ccc(F)c(F)c3)ccc2c1O : 0.1 10^3 cells/μl
N#Cc1nc(C(=O)NCC(=O)O)c(O)c2cc(Oc3ccc(F)cc3)ccc12 : 0.2 10^3 cells/μl

Could you tell me which Monocytes is on file for `Cc1cc(Cl)cc(C)c1Oc1ccc2c(C#N)nc(C(=O)NCC(=O)O)c(O)c2c1` ?
0.3 10^3 cells/μl

====

# Tested on: total white blood cell (WBC)
# Assay Comment: Total white blood cells by complete blood count on day 8, dosing day 1, 3, 5
# Assay type: in vivo, Swiss-Webster mice
# Test Conditions: mice, oral gavage, 200 mg/kg on day 1, day 3 and day 5; measured on day 8
Items are presented alongside their recorded Total WBC.

In the examples that follow, each entry is paired with its recorded Total WBC.
COc1ccc(Cn2cc(Cl)c3c(O)c(C(=O)NCC(=O)O)nc(C#N)c32)cc1 [Compound AM] : 23.3 10^3 cells/μl
COc1ccc(Oc2cccc3c(C#N)nc(C(=O)NCC(=O)O)c(O)c23)cc1 [Compound N] : 12.0 10^3 cells/μl
COc1ccc(Cn2cc(Br)c3c(O)c(C(=O)NCC(=O)O)nc(C#N)c32)cc1 [Compound AJ] : 21.5 10^3 cells/μl
N#Cc1nc(C(=O)NCC(=O)O)c(O)c2c(Oc3cccc(Cl)c3)cccc12 [Compound BB] : 20.1 10^3 cells/μl
Cc1cccc(C)c1Oc1ccc2c(C#N)nc(C(=O)NCC(=O)O)c(O)c2c1 [Compound E] : 16.6 10^3 cells/μl
Cc1nc(C(=O)NCC(=O)O)c(O)c2ccc(Cl)cc12 [Compound Y] : 9.8 10^3 cells/μl
CC(C)Oc1ccc(Cn2c(Cl)c(Cl)c3c(O)c(C(=O)N[C@@H](C)C(=O)O)nc(C#N)c32)cc1 [Compound BD] : 14.1 10^3 cells/μl
N#Cc1nc(C(=O)NCC(=O)O)c(O)c2c(Oc3ccccc3)cccc12 [Compound AH] : 9.4 10^3 cells/μl

Could you tell me which Total WBC is on file for CC(C)Oc1ccc2c(O)c(C(=O)NCC(=O)O)nc(C#N)c2c1 [Compound H] ?
37.8 10^3 cells/μl

Note, next up: N#Cc1nc(C(=O)NCC(=O)O)c(O)c2c(Cl)cn(Cc3ccc(-c4ccccc4)cc3)c12 [Compound AW]
39.1 10^3 cells/μl
